This collection of values is drawn from ChEMBL document CHEMBL4368893.

Test system: Thoracic aorta
measurement.description: Myorelaxant activity in rat thoracic aortic rings assessed as relaxation of 30 mM KCl-induced contraction by force-displacement transducer based assay relative to KCl
Type: functional, tissue-based
measurement.type: EC50

mol.smiles: CC1(C)CN(NC(=O)Nc2cccc(Cl)c2)c2cc(Cl)ccc2O1
EC50: 9.9 µM

mol.smiles: CC1(C)CN(NC(=O)Nc2cccc(C#N)c2)c2cc(Cl)ccc2O1
EC50: 1.9 to 3.1 µM

mol.smiles: CC1(C)CN(NC(=S)Nc2ccc(C#N)cc2)c2cc(Cl)ccc2O1
EC50: > 30 µM

mol.smiles: CC1(C)CN(NC(=O)Nc2ccc(C#N)cc2)c2cc(Cl)ccc2O1
EC50: 3.7 µM

mol.smiles: CC1(C)CN(NC(=S)Nc2ccc(Cl)cc2)c2cc(Cl)ccc2O1
EC50: > 30 µM

mol.smiles: CC1(C)CN(NC(=S)Nc2cccc(C#N)c2)c2cc(Cl)ccc2O1
EC50: > 30 µM

mol.smiles: CC1(C)CN(NC(=O)Nc2ccc(Cl)cc2)c2cc(Cl)ccc2O1
EC50: 13.3 µM

Shifting focus to the compound that follows.
get_value(item= CC1(C)CN(NC(=S)Nc2cccc(Cl)c2)c2cc(Cl)ccc2O1 , readout=EC50) returns > 30 µM

* * *

measurement.description: Inhibition of glucose-induced insulin release in rat pancreatic islets assessed as residual insulin secretion at 10 uM incubated for 90 mins incubated in presence of 16.7 mM glucose by radioimmunology assay
Assay type: functional
List of Activity values.
Kindly answer with a numeric value in %, unit omitted.

// below: answered compounds
mol.smiles: CC1(C)CN(NC(=S)Nc2cccc(C#N)c2)c2cc(Cl)ccc2O1
measurement.type: Activity
measured.result: 27
//
mol.smiles: CC1(C)CN(NC(=O)Nc2ccc(C#N)cc2)c2cc(Cl)ccc2O1
measurement.type: Activity
measured.result: 43.1
//
mol.smiles: CC1(C)CN(NC(=S)Nc2cccc(Cl)c2)c2cc(Cl)ccc2O1
measurement.type: Activity
measured.result: 71.8
//
mol.smiles: CC1(C)CN(NC(=O)Nc2cccc(Cl)c2)c2cc(Cl)ccc2O1
measurement.type: Activity
measured.result: 46
//
mol.smiles: CC1(C)CN(NC(=O)Nc2ccc(Cl)cc2)c2cc(Cl)ccc2O1
measurement.type: Activity
measured.result: 56.2
//
mol.smiles: CC1(C)CN(NC(=S)Nc2ccc(C#N)cc2)c2cc(Cl)ccc2O1
measurement.type: Activity
measured.result: 10.8

The compound listed as CC1(C)CN(NC(=O)Nc2cccc(C#N)c2)c2cc(Cl)ccc2O1 has a reported Activity of 35.7

Kindly note the recorded Activity for CC1(C)CN(NC(=S)Nc2ccc(Cl)cc2)c2cc(Cl)ccc2O1 , which is 81.4
